Test system: immediate type asthmatic response
experiment: Effect on experimental immediate type asthma model in guinea pigs (airway resistance)
Format: in vivo, guinea pig (male hartley guinea pigs)
condition.notes: 0.2 mg/kg i.v., 1 hour before and 3 hours after challenge; airway resistance 1 minute after challenge
assay.readout: immediate type asthma inhibition % (%)
The answer is to be given in %; state only the numeric part.

- substance.smiles: "CCCCCCCCOc1c(O[C@@H]2O[C@H](C(=O)O)[C@@H](O)[C@H](O)[C@H]2O)c2ccc(NC(=O)/C=C/c3cc(OC)c(O)c(OC)c3)cc2n(C)c1=O"
  assay.readout: "immediate type asthma inhibition %"
  unit.of.measure: "%"
  data.value: 22
- substance.smiles: "CCCCCCCCOc1c(O[C@@H]2O[C@H](CO)[C@@H](O)[C@H](O)[C@H]2O)c2ccc(NC(=O)/C=C/c3cc(OC)c(O[C@@H]4O[C@H](CO)[C@@H](O)[C@H](O)[C@H]4O)c(OC)c3)cc2n(C)c1=O"
  assay.readout: "immediate type asthma inhibition %"
  unit.of.measure: "%"
  data.value: 27

Here's the next entry for you.
Q: Which value of immediate type asthma inhibition % has been reported for `CCCCCCCCOc1c(O[C@@H]2O[C@H](CO)[C@H](O)[C@H](O)[C@H]2O)c2ccc(NC(=O)/C=C/c3cc(OC)c(O[C@@H]4O[C@H](CO)[C@H](O)[C@H](O)[C@H]4O)c(OC)c3)cc2n(C)c1=O` in the records?
A: 25
